Reference source for all entries: patent US20260015350A1

TESTED_TARGET: KRas^WT (Homo sapiens)
Construct: Biotinylated KRas (corresponding to amino acids 1-169, produced at Accelegan Inc.); biotin (biotinylated); purchased Accelegan Inc
Sequence (P01116 1-169 isoform P01116-2): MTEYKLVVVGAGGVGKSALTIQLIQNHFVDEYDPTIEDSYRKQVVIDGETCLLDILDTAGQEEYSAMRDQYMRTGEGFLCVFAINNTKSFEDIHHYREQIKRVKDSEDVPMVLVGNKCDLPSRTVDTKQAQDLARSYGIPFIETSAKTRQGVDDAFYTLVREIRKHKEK
MEASUREMENT_DESCRIPTION: KRas binding assay (TR-FRET tracer displacement), KRas WT
EXPERIMENTAL_SETUP: single point, 10 nM compound, TR-FRET
EXPERIMENTAL_READOUT: inhibition at 0.01 µM (%)
Number only, in %; omit the unit.

Case CCc1cccc2cc3[nH]ncc3c(-c3ncc4c(N5C[C@@H]6C[C@H](C5)[C@H](O)C6)nc(OC[C@@]56CCCN5C[C@H](F)C6)nc4c3F)c12 , KRas^WT (Homo sapiens), inhibition at 0.01 µM recorded as 48

###

TESTED_TARGET: KRas^G12A (Homo sapiens, UniProt P01116, G12A)
Construct: Biotinylated KRas (corresponding to amino acids 1-169, produced at Accelegan Inc.); biotin (biotinylated); purchased Accelegan Inc
Sequence (P01116 1-169 isoform P01116-2 G12A): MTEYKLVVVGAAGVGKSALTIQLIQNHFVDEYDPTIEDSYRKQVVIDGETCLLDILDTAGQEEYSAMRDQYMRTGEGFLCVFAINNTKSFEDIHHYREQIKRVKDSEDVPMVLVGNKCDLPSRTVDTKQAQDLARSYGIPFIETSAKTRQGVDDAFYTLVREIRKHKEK
MEASUREMENT_DESCRIPTION: KRas binding assay (TR-FRET tracer displacement), KRas G12A
EXPERIMENTAL_SETUP: single point, 10 nM compound, TR-FRET
Quick reference: inhibition at 0.01 µM of the listed items.
# value in %; strip the unit string

// CCc1c(F)ccc2cc(O)cc(-c3ncc4c(N5CCC[C@]6(C5)C[C@H](O)C6)nc(OC[C@@]56CCCN5[C@H](COC(=O)N(C)C)CC6)nc4c3F)c12 [Example 712] : inhibition at 0.01 µM value = 88

Looking up CCc1c(F)ccc2cc(O)cc(-c3ncc4c(N5CCC[C@]6(CCO6)C5)nc(OCC5(CN(C)C)CC5)nc4c3F)c12 [Example 699] , I found its inhibition at 0.01 µM recorded as 87

Entry CCc1c(F)ccc2cc(O)cc(-c3ncc4c(N5CCC[C@]6(C5)C[C@@H](O)C6)nc(OC[C@@]56CCCN5[C@H](COC(=O)N(C)C)CC6)nc4c3F)c12 [Example 713] , inhibition at 0.01 µM reported as 74

Documented inhibition at 0.01 µM of CCc1c(F)ccc2cc(O)cc(-c3ncc4c(N5CCCn6nc(C(=O)N(C)C)c(C)c6C5)nc(OC[C@@]56CCCN5C[C@H](F)C6)nc4c3F)c12 [Example 670] : 98

Data point: Oc1cc(-c2ncc3c(N4CCCC5(CCO5)C4)nc(OC[C@@]45CCCN4C[C@H](F)C5)nc3c2F)c2c(Cl)c(F)ccc2c1 (stereo partly shown) [Example 773] ; inhibition at 0.01 µM = 86

What the record says about CCc1c(F)ccc2cc(O)cc(-c3ncc4c(N5CCC[C@@](C)(O)C5)nc(OC[C@@]56CCCN5[C@H](COC(=O)NC(C)C)CC6)nc4c3F)c12 [Example 718] : inhibition at 0.01 µM is 94

Reported inhibition at 0.01 µM for CCc1c(F)ccc2cc(O)cc(-c3ncc4c(N5CCCCC(C#N)C5)nc(OC[C@@]56CCCN5C[C@H](F)C6)nc4c3F)c12 (stereo partly shown) [Example 547] was 49

###

TESTED_TARGET: KRas^G12A (Homo sapiens, UniProt P01116, G12A)
Construct: Biotinylated KRas (corresponding to amino acids 1-169, produced at Accelegan Inc.); biotin (biotinylated); purchased Accelegan Inc
MEASUREMENT_DESCRIPTION: KRas binding assay (TR-FRET tracer displacement), KRas G12A
EXPERIMENTAL_SETUP: TR-FRET tracer displacement, KRas G12A
EXPERIMENTAL_READOUT: IC50

MOLECULE: Cc1cc2[nH]ncc2c(-c2ncc3c(N4CCC[C@]5(C4)NC(=O)NC5=O)nc(OCC4(CN(C)C)CC4)nc3c2F)c1C [Example 732]
IC50: 61 nM

IC50 recorded for this molecule, Cc1cc2[nH]ccc2c(-c2ncc3c(N4CCC[C@@](C)(O)C4)nc(OCC45CCCN4CCC5)nc3c2F)c1C [Example 871] , is 3690 nM

What the record says about O=S1(=O)NCC2(CCCN(c3nc(OCC45CCCN4CCC5)nc4c(F)c(-c5c6ccccc6cc6[nH]ncc56)ncc34)C2)N1 (stereo not drawn) [Example 758] : IC50 is < 2 nM

CCc1cccc2cc3[nH]ncc3c(-c3ncc4c(N5CCCn6nc(C(=O)N(C)C)cc6C5)nc(OC[C@@]56CCCN5C[C@H](F)C6)nc4c3F)c12 [Example 770] yielded IC50 of 12 nM

Item: C[C@@]1(O)CCCN(c2nc(OCC34CCCN3CCC4)nc3c(F)c(-c4c(C5CC5)c(Cl)cc5[nH]ncc45)ncc23)C1 [Example 876] | IC50: 14 nM

Reported IC50 of CCc1cccc2cc3[nH]ncc3c(-c3ncc4c(N5CCCC6(CC(=O)N6)C5)nc(OC[C@@]56CCCN5C[C@H](F)C6)nc4c3F)c12 (stereo partly drawn) [Example 771] : 10 nM

###

TESTED_TARGET: KRas^G12D (Homo sapiens, UniProt P01116, G12D)
Construct: Biotinylated KRas (corresponding to amino acids 1-169, produced at Accelegan Inc.); biotin (biotinylated); purchased Accelegan Inc
Sequence (P01116 1-169 isoform P01116-2 G12D): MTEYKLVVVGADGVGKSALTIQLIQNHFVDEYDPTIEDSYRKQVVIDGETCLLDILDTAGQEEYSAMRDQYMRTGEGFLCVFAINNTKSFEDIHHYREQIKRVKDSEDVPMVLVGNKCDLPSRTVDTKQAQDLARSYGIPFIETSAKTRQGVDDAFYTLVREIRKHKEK
MEASUREMENT_DESCRIPTION: KRas binding assay (TR-FRET tracer displacement), KRas G12D
EXPERIMENTAL_READOUT: IC50 (nM)
Give just the numeric value; nM need not be written.

Examples from the recorded data:
COMPOUND: CCc1c(F)ccc2cc(O)cc(-c3ncc4c(N5CC6CCC(C5)C6C)nc(OC[C@@]56CCCN5C[C@H](F)C6)nc4c3F)c12 (stereo partly drawn) [Example 862]
IC50 (nM): 311

COMPOUND: Cc1cc2[nH]nnc2c(-c2ncc3c(N4CCCC5(C4)NC(=O)NC5=O)nc(OCC45CCCN4CCC5)nc3c2F)c1C (stereo not drawn) [Example 823]
IC50 (nM): 2220

We next turn to a different compound, shown below.
Sample CCc1c(F)ccc2cc(O)cc(-c3ncc4c(N5CCCC(Cn6cccn6)C5)nc(OC[C@@]56CCCN5C[C@H](F)C6)nc4c3F)c12 (stereo partly drawn) [Example 610] ; IC50 observed: 66

###

TESTED_TARGET: KRas^G12D (Homo sapiens, UniProt P01116, G12D)
Construct: Biotinylated KRas (corresponding to amino acids 1-169, produced at Accelegan Inc.); biotin (biotinylated); purchased Accelegan Inc
MEASUREMENT_DESCRIPTION: KRas binding assay (TR-FRET tracer displacement), KRas G12D
Note: every record was labeled by where its IC50 sits among band 1: < 50 nM; band 2: ≥ 50 nM and < 400 nM; band 3: ≥ 400 nM

Here are 3 compounds together with their reported answers.
COMPOUND: Cc1cc2[nH]nnc2c(-c2ncc3c(N4C[C@@H]5C[C@H](C4)[C@H](O)C5)nc(OCC45CCCN4CCC5)nc3c2F)c1C
ASSIGNED_LABEL: band 3

COMPOUND: CCc1c(F)ccc2cc(O)cc(-c3ncc4c(N5CC6CCC(CC6)C5)nc(OC[C@@]56CCCN5C[C@H](F)C6)nc4c3F)c12
ASSIGNED_LABEL: band 2

COMPOUND: CCc1c(F)ccc2cc(O)cc(-c3ncc4c(N5CC6CC(O)C(C6)C5)nc(OC[C@]56CCCN5[C@H](COC(=O)N(C)C)CC6)nc4c3F)c12 (some centres unmarked)
ASSIGNED_LABEL: band 1

For the record Cc1cc2[nH]c(=O)[nH]c2c(-c2ncc3c(N4CCC[C@@](C)(O)C4)nc(OCC45CCCN4CCC5)nc3c2F)c1C , report the class its IC50 corresponds to.
band 3

###

The reader will find reported IC50 values listed item by item below.
Tested on: KRas-mediated phosphorylation of ERK in H727 cells
MEASUREMENT_DESCRIPTION: Inhibition of KRas-mediated phosphorylation of ERK (Cisbio HTRF pERK), H727 cells
Format: cell-based
EXPERIMENTAL_SETUP: H727 cells; HTRF pERK
Field format: number, assumed nM, no unit text.

COMPOUND: CCc1c(F)ccc2cc(O)cc(-c3ncc4c(N5CCCC(C6CCNC6=O)C5)nc(OC[C@@]56CCCN5C[C@H](F)C6)nc4c3F)c12 (single isomer, unassigned) [Example 619]
VALUE_UNITS: nM
EXPERIMENTAL_VALUE: 1810

COMPOUND: CCc1c(F)ccc2cc(O)cc(-c3ncc4c(N5CCCC(C6CCNC6=O)C5)nc(OC[C@@]56CCCN5C[C@H](F)C6)nc4c3F)c12 (single isomer, unassigned) [Example 617]
VALUE_UNITS: nM
EXPERIMENTAL_VALUE: 763

COMPOUND: CCc1c(F)ccc2cc(O)cc(-c3ncc4c(N5CC6CCC(C5)C6C#N)nc(OC[C@@]56CCCN5C[C@H](F)C6)nc4c3F)c12 (single isomer, unassigned) [Example 560]
VALUE_UNITS: nM
EXPERIMENTAL_VALUE: 724

Notebook: CCc1c(F)ccc2cc(O)cc(-c3ncc4c(N5CC6CCC(C5)C6C#N)nc(OC[C@@]56CCCN5C[C@H](F)C6)nc4c3F)c12 (single isomer, unassigned) [Example 561] , IC50 read as 13
